# Measured Target: T1, MICA.008.a3.T204-S297.I236T.mIgG2a.Glyco13 (human; mouse, UniProt Q29983 204-297, engineered N-linked glycosylation site created by I236T)
# T1 construct: not shown: murine IgG2a Fc
# T1 chain: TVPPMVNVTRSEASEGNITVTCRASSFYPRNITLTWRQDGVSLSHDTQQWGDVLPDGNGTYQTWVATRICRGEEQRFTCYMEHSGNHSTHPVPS
# Assay Remarks: ELISA, coated variant;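 also: ELISA with plates coated at 2 ug/ml with MICA*008 alpha 3 glycosylation variants as murine IgG2a Fc fusions, antibody binding detected by HRP anti-human IgG Fc and TMB absorbance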
Assay Endpoint: binding result

15F11 (antibody, V domains shown, Mouse variable domains; constant regions differ by assay) VH: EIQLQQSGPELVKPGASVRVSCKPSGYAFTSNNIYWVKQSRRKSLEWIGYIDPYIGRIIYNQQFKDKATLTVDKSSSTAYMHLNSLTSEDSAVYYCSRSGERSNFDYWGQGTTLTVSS VL: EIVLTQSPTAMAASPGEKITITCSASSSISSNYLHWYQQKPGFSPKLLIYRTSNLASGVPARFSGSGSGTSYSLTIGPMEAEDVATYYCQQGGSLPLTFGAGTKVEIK :: binds
32D2 (antibody, V domains shown, Mouse hybridoma antibody; constant regions differ by assay) VH: DVHLVESGGGLVQPGGSRKLSCAASGFTFNTFGMNWVRQAPEKGLEWVAYINSGSNTIYYADTVKGRFTISRDNPKNTLFLQMTSLRSEDTAMYYCTRWEPVTGGFSYWGQGTLVTVSA VL: QIVLTQSPAFKSSSLGERVTMTCTASSSISSSYLHWYQQKPGSSPKLWIYTTSNLASGVPARFSGSGSGTSYSLTISTMEAEDAATYYCHQHHRSPFTFGSGTKVEIK :: binds
1D5 (antibody, V domains shown, Mouse variable domains; constant regions differ by assay (human IgG1 or mouse IgG2a); also called anti-MIC 1D5) VH: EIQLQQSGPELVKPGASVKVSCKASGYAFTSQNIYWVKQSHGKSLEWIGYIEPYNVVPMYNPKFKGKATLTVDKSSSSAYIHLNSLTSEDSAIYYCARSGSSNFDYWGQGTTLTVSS VL: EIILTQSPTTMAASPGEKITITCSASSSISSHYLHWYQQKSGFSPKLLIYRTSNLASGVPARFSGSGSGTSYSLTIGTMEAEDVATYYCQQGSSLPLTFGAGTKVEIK :: binds
